Measured values drawn from patent US20250298027A1 for this set.

test system: Jurkat cells; experiment: Cell viability in Jurkat cells (WST-1); format: cell-based; details: Homo sapiens, Jurkat, 44 h, read-out: IC50, viability of Jurkat cells, Average +/− SD, 44 hours, WST-1, average of 3 biological replicates

Compound	IC50 [nM]
CC(C)C[C@H](NC(=O)[C@H](CCc1ccccc1)NC(=O)CN1CCOCC1)C(=O)N[C@@H](Cc1ccc[te]1)C(=O)N[C@@H](CC(C)C)C(=O)[C@@]1(C)CO1 (single isomer, unassigned)	9.71
